tested on: MT4; assay: Concentration of compound required to achieve 50% protection of MT-4 cells against HIV-1 virus induced cytopathic effect; format: functional, cell-based; conditions: Homo sapiens
// reported EC50 for each item listed
Write the answer as a number in nM, unit excluded.

// below: answered molecules
molecule	unit.string	EC50
CCOCn1c(Sc2ccccc2)c(CC)c(=O)[nH]c1=O	nM	19
Cc1c(Sc2ccccc2)n(COCc2ccccc2)c(=O)[nH]c1=O	nM	88
COCCOCn1c(Sc2ccccc2)c(C)c(=O)[nH]c1=O	nM	8700
CCc1c(Sc2ccccc2)n(COCc2ccccc2)c(=O)[nH]c1=O	nM	5.9
CCc1c(Sc2ccccc2)n(COCCO)c(=O)[nH]c1=O	nM	120
CCOCn1c(Sc2ccccc2)c(C)c(=O)[nH]c1=O	nM	330
Cc1cn([C@H]2C[C@H](N=[N+]=[N-])[C@@H](CO)O2)c(=O)[nH]c1=O [ZIDOVUDINE]	nM	3
Cc1c(Sc2ccccc2)n(COCCO)c(=O)[nH]c1=O [HEPT]	nM	6500
Cc1c(Sc2ccccc2)n(COCCF)c(=O)[nH]c1=O	nM	1100
Cc1c(Sc2ccccc2)n(COCCCl)c(=O)[nH]c1=O	nM	1500

Now let's try a different one.
Q. # return EC50 of `Cc1c(Sc2ccccc2)n(COCCN=[N+]=[N-])c(=O)[nH]c1=O` (system: MT4)
A. 5800
